target: Cytochrome P450 3A4 (Homo sapiens); test: Cytochrome panel assay with activity outcomes; conditions: recombinant CYP, pro-luciferin dealkylation, luminescence, p450-cyp3a4; series mostly up to 57.1 µM
Screen size: about 16,000 compounds; about 5,100 (32%) were called active. Not shown: some 25% with an inconclusive outcome. Calls follow the shape of the dose curve; as a rule, active = well fitted curve in the direction sought with a large enough effect; inconclusive = small, poorly fitted or top-dose-only effect, or effect the other way; inactive = no such curve, though single readings can be large or run the other way. This is one part of the list.
Outcomes: T for active, F for inactive

compoundSmiles	assignedCategory
COc1ccc(-n2c(=O)c(-c3cccc(Cl)c3)nc3cncnc32)cc1	T
CC(C)(CS)C(=O)N1CCC[C@H]1C(=O)O	F
O=C(N/C(=C/c1cccs1)c1nc2ccccc2[nH]1)c1ccccc1	T
Cc1ccc(S(=O)(=O)N[C@H]2COC(=O)C/C=C\[C@@H](C)[C@H](NS(=O)(=O)c3ccc(C)cc3)COC(=O)C/C=C\[C@H]2C)cc1	T
O=C(N/C(=C/c1ccc(Br)cc1)c1nc2ccccc2[nH]1)c1ccco1	T
CCNc1ncc2nc(-c3cc(F)cc(F)c3)c(=O)n(-c3ccc(OC)cc3)c2n1	T
Cn1c(=O)c(-c2cccc(Cl)c2)nc2cncnc21	F
CN[C@H]1[C@@H](O[C@@H]2[C@H](O[C@@H]3[C@@H](O)[C@@H](O)[C@@H](N=C(N)N)[C@@H](O)[C@@H]3N=C(N)N)O[C@H](C)[C@@]2(O)C=O)O[C@@H](CO)[C@@H](O)[C@H]1O	F
CCCCc1[nH]c(=O)c(C#N)c2c1CCCC2	F
